The measured values listed here are drawn from patent US20020115728A1.

assay: Plasma drug level of bisphenol; type: in vivo, mice; conditions: male, apoE−/−;LDLr−/−, mouse, plasma, oral, 0.03 % (w/w) in chow, mice ranked by plasma drug level; Bisphenol [high] aorta pool; read-out: plasma concentration of bisphenol, high group
READOUT LABEL: concentration at 14 weeks

COMPOUND | RESULT
CC(C)(C)c1cc(-c2cc(C(C)(C)C)c(O)c(C(C)(C)C)c2)cc(C(C)(C)C)c1O [Bisphenol, bisphenol] | 212 µM
